B1: Caspase-9 (Homo sapiens), P55211 (parent)
chain: MDEADRRLLRRCRLRLVEELQVDQLWDALLSRELFRPHMIEDIQRAGSGSRRDQARQLIIDLETRGSQALPLFISCLEDTGQDMLASFLRTNRQAAKLSKPTLENLTPVVLRPEIRKPEVLRPETPRPVDIGSGGFGDVGALESLRGNADLAYILSMEPCGHCLIINNVNFCRESGLRTRTGSNIDCEKLRRRFSSLHFMVEVKGDLTAKKMVLALLELAQQDHGALDCCVVVILSHGCQASHLQFPGAVYGTDGCPVSVEKIVNIFNGTSCPSLGGKPKLFFIQACGGEQKDHGFEVASTSPEDESPGSNPEPDATPFQEGLRTFDQLDAISSLPTPSDIFVSYSTFPGFVSWRDPKSGSWYVETLDDIFEQWAHSEDLQSLLLRVANAVSVKGIYKQMPGCFNFLRKKLFFKTS

Variants of: B1
studyConditions: with birc2_human BIRC2, Q13490
Sequence (Q13490 whole entry): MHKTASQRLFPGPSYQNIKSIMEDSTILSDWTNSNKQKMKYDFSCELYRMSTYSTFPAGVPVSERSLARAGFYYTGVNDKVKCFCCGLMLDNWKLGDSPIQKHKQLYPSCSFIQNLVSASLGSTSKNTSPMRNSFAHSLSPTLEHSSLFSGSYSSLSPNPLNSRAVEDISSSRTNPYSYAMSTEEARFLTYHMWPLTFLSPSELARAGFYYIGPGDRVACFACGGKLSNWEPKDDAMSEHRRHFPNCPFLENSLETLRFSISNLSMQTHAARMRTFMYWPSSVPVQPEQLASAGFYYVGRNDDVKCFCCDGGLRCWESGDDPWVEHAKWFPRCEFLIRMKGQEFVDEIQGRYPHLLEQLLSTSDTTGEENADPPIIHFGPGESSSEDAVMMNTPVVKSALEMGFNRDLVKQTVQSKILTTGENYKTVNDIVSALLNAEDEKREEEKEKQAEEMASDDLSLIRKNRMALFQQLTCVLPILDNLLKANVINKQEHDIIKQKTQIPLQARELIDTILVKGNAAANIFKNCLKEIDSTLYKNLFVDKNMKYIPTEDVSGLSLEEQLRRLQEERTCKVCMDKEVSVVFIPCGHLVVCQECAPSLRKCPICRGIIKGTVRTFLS
measurementType: effect of a mutation on the interaction

Q221R : with no effect
P336S : with no effect
R173H : with no effect

These measurements were taken from IntAct's records for PubMed 31515488.
